IC50: recorded values
biological target: A2A receptor (Homo sapiens, UniProt P29274); assay: Inhibition of cAMP production in HEK cells; format: cell-based; conditions: IC50 (nM) (5 nM NECA as agonist, 2% HSA), HEK-293 cells with A2A receptor, 5 nM NECA as agonist, 2% HSA
Sequence (P29274 whole entry): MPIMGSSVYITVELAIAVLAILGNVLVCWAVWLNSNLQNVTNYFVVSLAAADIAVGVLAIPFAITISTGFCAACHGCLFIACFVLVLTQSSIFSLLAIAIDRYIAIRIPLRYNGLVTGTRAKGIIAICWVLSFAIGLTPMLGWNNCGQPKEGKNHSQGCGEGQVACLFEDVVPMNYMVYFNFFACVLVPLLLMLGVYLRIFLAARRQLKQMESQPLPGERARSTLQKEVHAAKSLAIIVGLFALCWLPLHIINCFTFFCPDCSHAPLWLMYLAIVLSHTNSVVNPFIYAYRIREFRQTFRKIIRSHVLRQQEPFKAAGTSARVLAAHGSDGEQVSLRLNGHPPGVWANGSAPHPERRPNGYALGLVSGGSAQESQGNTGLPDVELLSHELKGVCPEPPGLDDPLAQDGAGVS
Metric: IC50

INSERT INTO assay_data (compound, metric, assay_result) VALUES
  ('CS(=O)(=O)c1ccc(N2CCN(CCn3c(=O)sc4c3nc(N)n3nc(-c5ccco5)nc43)CC2)c(F)c1 [Compound 29]', 'IC50', '11 nM'),
  ('Nc1nc2c(sc(=O)n2CCN2CCN(c3ccc(OC4CCNCC4)cc3F)CC2)c2nc(-c3ccco3)nn12 [Compound 47]', 'IC50', '1 nM'),
  ('NC(=O)COc1ccc(N2CCN(CCn3c(=O)sc4c3nc(N)n3nc(-c5ccco5)nc43)CC2)c(F)c1 [Compound 54]', 'IC50', '3 nM'),
  ('CN(C)CCNC(=O)COc1cc(N2CCN(CCn3c(=O)sc4c3nc(N)n3nc(-c5ccco5)nc43)CC2)c(F)cc1F [Compound 63]', 'IC50', '1 nM'),
  ('Nc1nc2c(sc(=O)n2CCN2CCN(c3cc(OCc4nnn[nH]4)c(F)cc3F)CC2)c2nc(-c3ccco3)nn12 [Compound 66]', 'IC50', '13 nM'),
  ('C[C@@H](Oc1ccc(N2CCN(CCn3c(=O)sc4c3nc(N)n3nc(-c5ccco5)nc43)CC2)c(F)c1)C(=O)O (single isomer, unassigned) [Compound 53]', 'IC50', '4 nM'),
  ('C[C@H](Oc1cc(N2CCN(CCn3c(=O)sc4c3nc(N)n3nc(-c5ccco5)nc43)CC2)c(F)cc1F)C(=O)O (single isomer, unassigned) [Compound 60]', 'IC50', '4 nM');

----------
target: A2A receptor (Homo sapiens, UniProt P29274); test: Inhibition of cAMP production in HEK cells; type: cell-based; details: IC50 (nM) (5 μM Adenosine as agonist, 2.0% HSA), HEK-293 cells with A2A receptor, 5 μM Adenosine as agonist, 2.0% HSA
So basically, if IC50 comes in under 400 nM it's yes (1), and if it's 400 nM or more it's no (0).

INSERT INTO assay_data (compound, label_class) VALUES
  ('NC(=O)CNCCOc1ccc(N2CCN(CCn3c(=O)sc4c3nc(N)n3nc(-c5ccco5)nc43)CC2)c(F)c1 [Compound 45]', 'yes (1)'),
  ('CS(=O)(=O)c1ccc(N2CCN(CCn3c(=O)sc4c3nc(N)n3nc(-c5ccco5)nc43)CC2)c(F)c1 [Compound 29]', 'yes (1)'),
  ('Nc1nc2c(sc(=O)n2CCN2CCN(c3ccc(F)c(OCC(=O)O)c3F)CC2)c2nc(-c3ccco3)nn12 [Compound 42]', 'yes (1)'),
  ('Nc1nc2c(sc(=O)n2CCN2CCN(c3ccc(OCC4COCCN4)cc3F)CC2)c2nc(-c3ccco3)nn12 (stereo not drawn) [Compound 99]', 'yes (1)'),
  ('Nc1nc2c(sc(=O)n2CCN2CCN(c3ccc(O[C@H]4COC[C@@H]4O)cc3F)CC2)c2nc(-c3ccco3)nn12 [Compound 84]', 'yes (1)'),
  ('Nc1nc2c(sc(=O)n2CCN2CCN(c3ccc(OC4CNC4)cc3)CC2)c2nc(-c3ccco3)nn12 [Compound 108]', 'yes (1)'),
  ('Nc1nc2c(sc(=O)n2CCN2CCN(c3cc(O[C@H]4CCNC4=O)c(F)cc3F)CC2)c2nc(-c3ccco3)nn12 [Compound 95]', 'yes (1)'),
  ('C[C@H](Oc1ccc(N2CCN(CCn3c(=O)sc4c3nc(N)n3nc(-c5ccco5)nc43)CC2)c(F)c1)C(=O)O (single isomer, unassigned) [Compound 38]', 'no (0)'),
  ('Nc1nc2c(sc(=O)n2CCN2CCN(c3ccc(OCC4CNCCO4)cc3F)CC2)c2nc(-c3ccco3)nn12 (stereo not drawn) [Compound 100]', 'yes (1)'),
  ('Nc1nc2c(sc(=O)n2CCN2CCN(c3ccc(O[C@@H]4CNC[C@H]4F)cc3F)CC2)c2nc(-c3ccco3)nn12 [Compound 101]', 'yes (1)'),
  ('Nc1nc2c(sc(=O)n2CCN2CCN(c3ccc(OCc4n[nH]c(=O)o4)cc3F)CC2)c2nc(-c3ccco3)nn12 [Compound 2]', 'no (0)'),
  ('CCOC(=O)COc1cc(N2CCN(CCn3c(=O)sc4c3nc(N)n3nc(-c5ccco5)nc43)CC2)c(F)cc1F [Compound 73]', 'yes (1)'),
  ('Nc1nc2c(sc(=O)n2CCN2CCN(c3c(F)cc(OCC(=O)O)cc3F)CC2)c2nc(-c3ccco3)nn12 [Compound 36]', 'yes (1)'),
  ('CN(C)CCN(C)C(=O)c1cc(N2CCN(CCn3c(=O)sc4c3nc(N)n3nc(-c5ccco5)nc43)CC2)c(F)cc1F [Compound 64]', 'yes (1)'),
  ('Nc1nc2c(sc(=O)n2CCN2CCN(c3cc(OCC4COCCN4)c(F)cc3F)CC2)c2nc(-c3ccco3)nn12 (stereo not drawn) [Compound 90]', 'yes (1)'),
  ('Nc1nc2c(sc(=O)n2CCN2CCN(c3ccc(OCc4c[nH]nn4)cc3F)CC2)c2nc(-c3ccco3)nn12 [Compound 1]', 'no (0)'),
  ('C[S@@+]([O-])CCNC(=O)c1ccc(N2CCN(CCn3c(=O)sc4c3nc(N)n3nc(-c5ccco5)nc43)CC2)c(F)c1 [Compound 124]', 'no (0)'),
  ('C[C@@H](Oc1ccc(N2CCN(CCn3c(=O)sc4c3nc(N)n3nc(-c5ccco5)nc43)CC2)c(F)c1)C(=O)O (single isomer, unassigned) [Compound 53]', 'yes (1)'),
  ('Nc1nc2c(sc(=O)n2CCN2CCN(c3cc(OCCCC(=O)O)c(F)cc3F)CC2)c2nc(-c3ccco3)nn12 [Compound 65]', 'no (0)'),
  ('CNCCNC(=O)c1ccc(N2CCN(CCn3c(=O)sc4c3nc(N)n3nc(-c5ccco5)nc43)CC2)c(F)c1 [Compound 31]', 'yes (1)'),
  ('Nc1nc2c(sc(=O)n2CCN2CCN(c3cc(C(=O)N4CC[S+]([O-])CC4)c(F)cc3F)CC2)c2nc(-c3ccco3)nn12 [Compound 117]', 'no (0)'),
  ('Nc1nc2c(sc(=O)n2CCN2CCN(c3ccc(OCC(O)C(F)(F)F)cc3F)CC2)c2nc(-c3ccco3)nn12 (stereo not drawn) [Compound 87]', 'no (0)'),
  ('Nc1nc2c(sc(=O)n2CCN2CCN(c3cc(OCCO)ccc3F)CC2)c2nc(-c3ccco3)nn12 [Compound 88]', 'yes (1)'),
  ('Nc1nc2c(sc(=O)n2CCN2CCN(c3cc(OCC4CNCCO4)c(F)cc3F)CC2)c2nc(-c3ccco3)nn12 (stereo not drawn) [Compound 89]', 'yes (1)'),
  ('Nc1nc2c(sc(=O)n2CCN2CCN(c3cc(C(=O)NCC4COCCN4)c(F)cc3F)CC2)c2nc(-c3ccco3)nn12 (stereo not drawn) [Compound 98]', 'yes (1)'),
  ('CNCCN(C)C(=O)c1ccc(N2CCN(CCn3c(=O)sc4c3nc(N)n3nc(-c5ccco5)nc43)CC2)c(F)c1 [Compound 55]', 'yes (1)');

Data provenance: patent US10995101B2
